Data origin, for the record: ChEMBL document CHEMBL4308910

System: A549
assay_protocol: Cytotoxicity against human A549 cells after 24 hrs by MTT assay
Type: functional, cell-based
conditions_used: A549, 24 h
// NB: equality with 200 µg/mL counts as class 0; only IC50 strictly below is class 1

| smiles_data | assay_system | label_class |
| --- | --- | --- |
| Cc1ncc([N+](=O)[O-])n1CCOc1cccc([N+](=O)[O-])c1 | A549 | class 1 |
| Cc1ncc([N+](=O)[O-])n1CCOc1ccccc1 | A549 | class 1 |
| COc1ccccc1C(=O)OCCn1c([N+](=O)[O-])cnc1C | A549 | class 0 |
| Cc1ncc([N+](=O)[O-])n1CCOc1ccc(F)cc1 | A549 | class 1 |
| Cc1ncc([N+](=O)[O-])n1CCOc1ccccc1Cl | A549 | class 0 |
| Cc1ncc([N+](=O)[O-])n1CCn1nnc2ccccc21 | A549 | class 0 |
| Cc1cc(OCCn2c([N+](=O)[O-])cnc2C)ccc1F | A549 | class 0 |
| Cc1ncc([N+](=O)[O-])n1CCOc1ccc(F)c(Cl)c1 | A549 | class 1 |
| Cc1ncc([N+](=O)[O-])n1CCOc1ccc(Cl)c(Cl)c1 | A549 | class 1 |
| COc1cccc(C(=O)OCCn2c([N+](=O)[O-])cnc2C)c1 | A549 | class 0 |
| Cc1ncc([N+](=O)[O-])n1CCOc1ccc([N+](=O)[O-])cc1 | A549 | class 1 |
| Cc1ncc([N+](=O)[O-])n1CCn1cnc2ccccc21 | A549 | class 0 |
| Cc1ccc(C(=O)OCCn2c([N+](=O)[O-])cnc2C)cc1 | A549 | class 1 |
| Cc1ncc([N+](=O)[O-])n1CCO | A549 | class 0 |
| Cc1ncc([N+](=O)[O-])n1CCOC(=O)c1ccccc1F | A549 | class 1 |
| Cc1ncc([N+](=O)[O-])n1CCCl | A549 | class 0 |
| Cc1ncc([N+](=O)[O-])n1CCOC(=O)c1ccccc1Cl | A549 | class 0 |
| Cc1ncc([N+](=O)[O-])n1CCn1ccnc1 | A549 | class 0 |
